Target: T1, FcγRIIB expressed on cells (UniProt P31994 43-310)
T1 chain: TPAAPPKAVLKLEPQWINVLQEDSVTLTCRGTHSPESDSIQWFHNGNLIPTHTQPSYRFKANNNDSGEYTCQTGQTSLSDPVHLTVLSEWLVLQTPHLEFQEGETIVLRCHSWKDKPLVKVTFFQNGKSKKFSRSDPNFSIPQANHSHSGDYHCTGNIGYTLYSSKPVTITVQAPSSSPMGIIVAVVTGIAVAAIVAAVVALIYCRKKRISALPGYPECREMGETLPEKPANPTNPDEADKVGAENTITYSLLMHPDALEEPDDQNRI
Assay: FACS
Assay endpoint: EC50 (nM)
// units = nM; emit number, no label

Study these solved cases before continuing.
| Binder | EC50 / nM |
| --- | --- |
| V273C (protein) APELLGGPSVFLFPPKPKDTLMISRTPEVTCVVVDVSHEDPECKFNWYVDGVEVHNAKTKPREEQYNSTYRVVSVLTVLHQDWLNGKEYKCKVSNKALPAPIEKTISKAK | 2.03 |
| V273L (protein) APELLGGPSVFLFPPKPKDTLMISRTPEVTCVVVDVSHEDPELKFNWYVDGVEVHNAKTKPREEQYNSTYRVVSVLTVLHQDWLNGKEYKCKVSNKALPAPIEKTISKAK | 1.66 |
| V273M (protein) APELLGGPSVFLFPPKPKDTLMISRTPEVTCVVVDVSHEDPEMKFNWYVDGVEVHNAKTKPREEQYNSTYRVVSVLTVLHQDWLNGKEYKCKVSNKALPAPIEKTISKAK | 1.63 |

Looking for the measured EC50 of V273F (protein) APELLGGPSVFLFPPKPKDTLMISRTPEVTCVVVDVSHEDPEFKFNWYVDGVEVHNAKTKPREEQYNSTYRVVSVLTVLHQDWLNGKEYKCKVSNKALPAPIEKTISKAK , can you help?
1.08

Looking for the measured EC50 of V273S (protein) APELLGGPSVFLFPPKPKDTLMISRTPEVTCVVVDVSHEDPESKFNWYVDGVEVHNAKTKPREEQYNSTYRVVSVLTVLHQDWLNGKEYKCKVSNKALPAPIEKTISKAK , can you help?
1.72

Looking for the measured EC50 of V305W (protein) APELLGGPSVFLFPPKPKDTLMISRTPEVTCVVVDVSHEDPEVKFNWYVDGVEVHNAKTKPREEQYNSTYRVVSWLTVLHQDWLNGKEYKCKVSNKALPAPIEKTISKAK , can you help?
2.86

Looking for the measured EC50 of V305K (protein) APELLGGPSVFLFPPKPKDTLMISRTPEVTCVVVDVSHEDPEVKFNWYVDGVEVHNAKTKPREEQYNSTYRVVSKLTVLHQDWLNGKEYKCKVSNKALPAPIEKTISKAK , can you help?
1.93

Looking for the measured EC50 of V263L (protein) APELLGGPSVFLFPPKPKDTLMISRTPEVTCVLVDVSHEDPEVKFNWYVDGVEVHNAKTKPREEQYNSTYRVVSVLTVLHQDWLNGKEYKCKVSNKALPAPIEKTISKAK , can you help?
1.8

Looking for the measured EC50 of V266L (protein) APELLGGPSVFLFPPKPKDTLMISRTPEVTCVVVDLSHEDPEVKFNWYVDGVEVHNAKTKPREEQYNSTYRVVSVLTVLHQDWLNGKEYKCKVSNKALPAPIEKTISKAK , can you help?
2.22

Looking for the measured EC50 of V273E (protein) APELLGGPSVFLFPPKPKDTLMISRTPEVTCVVVDVSHEDPEEKFNWYVDGVEVHNAKTKPREEQYNSTYRVVSVLTVLHQDWLNGKEYKCKVSNKALPAPIEKTISKAK , can you help?
1.66

Looking for the measured EC50 of V273Y (protein) APELLGGPSVFLFPPKPKDTLMISRTPEVTCVVVDVSHEDPEYKFNWYVDGVEVHNAKTKPREEQYNSTYRVVSVLTVLHQDWLNGKEYKCKVSNKALPAPIEKTISKAK , can you help?
1.18
